The reader will find reported mass density values listed item by item below.
test_settings: 298.15 K; 101.33 kPa; Liquid; Vibrating tube method
readout_label: mass density (kg/m3)

compound="CC(C)OC(=O)[C@@H]1CCC[NH2+]1.CCCCCCCCCCCCOS(=O)(=O)[O-] [(S)-2-(isopropoxycarbonyl)pyrrolidin-1-ium dodecyl sulfate]" reported_result=1046.8
compound="CC(C)COC(=O)[C@H](C)[NH3+].CCCCCCCCCCCCOS(=O)(=O)[O-] [(S)-1-isobutoxy-1-oxopropan-2-aminium dodecyl sulfate]" reported_result=1041.75
compound=CC(C)OC(=O)[C@@H]([NH3+])C(C)C.CCCCCCCCCCCCOS(=O)(=O)[O-] reported_result=1026.11
compound=CC(C)OC(=O)CC[C@H]([NH3+])C(=O)OC(C)C.CCCCCCCCCCCCOS(=O)(=O)[O-] reported_result=1050.31
compound="CC(C)COC(=O)[C@@H]1CCC[NH2+]1.CCCCCCCCCCCCOS(=O)(=O)[O-] [(S)-2-(isobutoxycarbonyl)pyrrolidinium dodecyl sulfate]" reported_result=1035.88

----------
Entries annotated with measured speed of sound
test_settings: 298.15 K; 101.33 kPa; Liquid; Sing-around technique in a fixed-path interferometer
readout_label: speed of sound (m/s)

compound=CC(C)OC(=O)CC[C@H]([NH3+])C(=O)OC(C)C.CCCCCCCCCCCCOS(=O)(=O)[O-] reported_result=1389
compound="CC(C)OC(=O)[C@@H]1CCC[NH2+]1.CCCCCCCCCCCCOS(=O)(=O)[O-] [(S)-2-(isopropoxycarbonyl)pyrrolidin-1-ium dodecyl sulfate]" reported_result=1419.2
compound="CC(C)COC(=O)[C@H](C)[NH3+].CCCCCCCCCCCCOS(=O)(=O)[O-] [(S)-1-isobutoxy-1-oxopropan-2-aminium dodecyl sulfate]" reported_result=1401.9
compound=CC(C)OC(=O)[C@@H]([NH3+])C(C)C.CCCCCCCCCCCCOS(=O)(=O)[O-] reported_result=1400.5
compound="CC(C)COC(=O)[C@@H](N)C(C)C.CCCCCCCCCCCCOS(=O)(=O)O [isobutyl L-valinate dodecyl sulfate]" reported_result=1408.6
compound="CC(C)COC(=O)[C@@H]1CCC[NH2+]1.CCCCCCCCCCCCOS(=O)(=O)[O-] [(S)-2-(isobutoxycarbonyl)pyrrolidinium dodecyl sulfate]" reported_result=1429.2

----------
test_settings: 313.15 K; 101.33 kPa; Liquid; Vibrating tube method
Consider the following molecules and their measured mass density readings.
readout_label: mass density (kg/m3)

molecule="CC(C)COC(=O)[C@H](C)[NH3+].CCCCCCCCCCCCOS(=O)(=O)[O-] [(S)-1-isobutoxy-1-oxopropan-2-aminium dodecyl sulfate]" readout_label="mass density" result_unit=kg/m3 reported_result=1030.13
molecule="CC(C)OC(=O)C[NH3+].CCCCCCCCCCCCOS(=O)(=O)[O-] [2-isopropoxy-2-oxoethan-1-aminium dodecyl sulfate]" readout_label="mass density" result_unit=kg/m3 reported_result=1017.68
molecule=CC(C)OC(=O)CC[C@H]([NH3+])C(=O)OC(C)C.CCCCCCCCCCCCOS(=O)(=O)[O-] readout_label="mass density" result_unit=kg/m3 reported_result=1038.6
molecule=CC(C)OC(=O)[C@@H]([NH3+])C(C)C.CCCCCCCCCCCCOS(=O)(=O)[O-] readout_label="mass density" result_unit=kg/m3 reported_result=1014.93
molecule="CC(C)COC(=O)[C@@H]1CCC[NH2+]1.CCCCCCCCCCCCOS(=O)(=O)[O-] [(S)-2-(isobutoxycarbonyl)pyrrolidinium dodecyl sulfate]" readout_label="mass density" result_unit=kg/m3 reported_result=1024.92
molecule="CC(C)COC(=O)C[NH3+].CCCCCCCCCCCCOS(=O)(=O)[O-] [2-isobutoxy-2-oxoethan-1-aminium dodecyl sulfate]" readout_label="mass density" result_unit=kg/m3 reported_result=1006.14
molecule="CC(C)OC(=O)[C@@H]1CCC[NH2+]1.CCCCCCCCCCCCOS(=O)(=O)[O-] [(S)-2-(isopropoxycarbonyl)pyrrolidin-1-ium dodecyl sulfate]" readout_label="mass density" result_unit=kg/m3 reported_result=1035.89
